The binders listed here are annotated with their IC50 activity group, enzyme release assay.
# study.target: T1, human C5aR (CD88) (human, UniProt P21730 1-350)
# T1 sequence (looked up): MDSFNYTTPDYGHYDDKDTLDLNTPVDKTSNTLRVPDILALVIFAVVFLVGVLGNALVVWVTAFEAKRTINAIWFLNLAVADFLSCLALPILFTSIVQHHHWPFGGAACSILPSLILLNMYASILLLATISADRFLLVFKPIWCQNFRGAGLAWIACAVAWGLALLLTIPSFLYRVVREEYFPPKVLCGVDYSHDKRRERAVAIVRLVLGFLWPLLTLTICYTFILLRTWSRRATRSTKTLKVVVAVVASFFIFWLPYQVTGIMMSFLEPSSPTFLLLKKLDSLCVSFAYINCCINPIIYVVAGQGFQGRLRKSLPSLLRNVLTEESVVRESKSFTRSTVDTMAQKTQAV
# test.summary: cell-based or functional assay
Non-standard residues stand in square brackets, D forms with d. No end group written: not given here. Phe(4-NH2) = Nc1ccc(C[C@H](N)C(=O)O)cc1; dCha = N[C@H](CC1CCCCC1)C(=O)O; Orn = NCCC[C@H](N)C(=O)O

Sample records with IC50 activity group, enzyme release assay:
Ac-F[Orn]P[dCha]W-{NH‑CH2‑CH2‑Ph} [Ac-Phe-Orn-Pro-cha-Trp-NH-CH2-CH2-Ph]
≤ 2 µM
Ac-F[Orn]P[dCha]WF (lactam (positions not given here); not fully specified (bridges); printed as Ac-Phe-[Orn-Pro-cha-Trp-Phe]) [Ac-Phe-[Orn-Pro-cha-Trp-Phe]]
≤ 0.05 µM

Query block: Query: IC50 activity group, enzyme release assay; subject: Ac-F[Orn]P[dA]WR (lactam (positions not given here); not fully specified (bridges); printed as Ac-Phe-[Orn-Pro-ala-Trp-Arg]) [Ac-Phe-[Orn-Pro-ala-Trp-Arg]]
Result block: > 2 µM

Query block: Query: IC50 activity group, enzyme release assay; subject: Ac-F[Orn]P[dCha]W[Phe(4-NH2)] (lactam (positions not given here); not fully specified (bridges); printed as Ac-Phe-[Orn-Pro-cha-Trp-Paf]) [Ac-Phe-[Orn-Pro-cha-Trp-Paf]]
Result block: ≤ 0.05 µM
